Every entry's value here was drawn from patent US12466821B2.

molecular target: human CMV DNA polymerase UL54 (Human cytomegalovirus (strain AD169) (HHV-5) (Human herpesvirus 5), UniProt P08546); assay: CMV polymerase biochemical assay (molecular beacon-based)
Items are presented alongside their recorded pIC50.
# pIC50 is unitless: minus log10 of the molar concentration; print number only

Some solved cases for reference:
>>> df
                                   molecule  value_reported
0  CC1Cn2c(ccc(C(=O)NCc3ccc(Cl)cc3)c2=O)C(=O)N1CCN(C)S(C)(=O)=O (stereo not drawn)            6.51
1  CN1CC(S(=O)(=O)C2(CN3CCn4c(ccc(C(=O)NCc5ccc(C#N)cc5)c4=O)C3=O)CC2)C1            7.88
2  CNC1(CN2CCn3c(ccc(C(=O)NCc4ccc(Cl)cc4)c3=O)C2=O)CC1            6.81
3  CC(C)S(=O)(=O)C1(CN2CCn3c(ccc(C(=O)NCc4ccc(C#N)c(F)c4)c3=O)C2=O)CC1            9.00
4  N#Cc1ccc(CNC(=O)c2ccc3n(c2=O)CCN(CC2(S(=O)(=O)C4CCC4)CC2)C3=O)cc1F            8.70

Entry "Cc1cc(C(=O)NCc2ccc(Cl)cc2)c(=O)n2c1C(=O)N(CCCS(C)(=O)=O)CC2" , pIC50 reported as 6.19

So, "CC(C)(CO)S(=O)(=O)C1(CN2CCn3c(ccc(C(=O)NCc4ccc(Cl)nc4)c3=O)C2=O)CC1" ? Its pIC50 was 8.57

Note to self: pIC50 recorded for "N#Cc1ccc(CNC(=O)c2ccc3n(c2=O)CCN(CC2(S(=O)(=O)C4(O)CC4)CC2)C3=O)cc1" was 8.11

The molecule "CC(C)(c1ncno1)S(=O)(=O)C1(CN2CCn3c(ccc(C(=O)NCc4ccc(Cl)cc4)c3=O)C2=O)CC1" showed pIC50 equal to 9.52

The reported value for "N#Cc1ccc(CNC(=O)c2ccc3n(c2=O)CCN(CC2(S(=O)(=O)N4CC(F)(F)C4)CC2)C3=O)cc1" in terms of pIC50 is 8.41

###

target: human CMV DNA polymerase UL54 (Human cytomegalovirus (strain AD169) (HHV-5) (Human herpesvirus 5), UniProt P08546); assay: CMV polymerase biochemical assay (molecular beacon-based)
Below, each of the compounds is paired with its reported log10 IC50 value.
Note the log scale: values are log10 of IC50 expressed in µM.

Below, each entry is followed by its recorded log10 IC50 result.
>>> print(df.to_string())
                                   compound  value_reported
0  CS(=O)(=O)CCCN1CCn2c(c(C(F)F)cc(C(=O)NCc3ccc(Cl)cc3)c2=O)C1=O            0.15
1  CC1(CS(=O)(=O)C2(CN3CCn4c(ccc(C(=O)NCc5ccc(C#N)cc5)c4=O)C3=O)CC2)COC1           -2.96
2  CC(C)(C)NS(=O)(=O)C1(CN2CCn3c(ccc(C(=O)NCc4ccc(Cl)cc4)c3=O)C2=O)CC1           -3.22
3  CS(=O)(=O)CCCN1CCn2c(c(C#CCO)cc(C(=O)NCc3ccc(Cl)cc3)c2=O)C1=O           -0.04
4  CS(=O)(=O)C1(CN2CCn3c(ccc(C(=O)NCC4CCC(F)(F)CC4)c3=O)C2=O)CC1           -1.20
5  O=C(NCc1ccc(Cl)cc1)c1ccc2n(c1=O)CCN(CCS(=O)(=O)C1CC1)C2=O           -1.47

Sure, the documented log10 IC50 for "Cc1cc(C(=O)NCc2ccc(Cl)cc2)c(=O)n2c1C(=O)N(CCS(C)(=O)=O)CC2" is -0.93

Form field log10 IC50, entry N#Cc1ccc(CNC(=O)c2ccc3n(c2=O)CCN(CC2(S(=O)(=O)[C@H]4CC4(F)F)CC2)C3=O)cc1F (single isomer, unassigned) : -3.00

Value of measured log10 IC50 for the entry "N#Cc1ccc(CNC(=O)c2ccc3n(c2=O)CCN(CC2(S(=O)(=O)N4CC(F)(F)C4)CC2)C3=O)cc1F" : -2.55

compound "COC(=O)N(C)CCN1CCn2c(ccc(C(=O)NCc3ccc(Cl)cc3)c2=O)C1=O" , log10 IC50 observed: -0.13

For reference, reported log10 IC50 for "CC(C)(C(N)=O)S(=O)(=O)C1(CN2CCn3c(ccc(C(=O)NCc4ccc(Cl)cc4)c3=O)C2=O)CC1" stands at -2.82

Sure, the documented log10 IC50 for "CN(C1(CN2CCn3c(ccc(C(=O)NCc4ccc(Cl)cc4)c3=O)C2=O)CC1)S(C)(=O)=O" is -1.19

In plain terms, "Cc1cc(C(=O)NCc2ccc(F)cc2)c(=O)n2c1C(=O)N(CC1(S(C)(=O)=O)CC1)CC2" has a documented log10 IC50 of -1.95

The reported value for "CS(=O)(=O)NC1(CN2CCn3c(ccc(C(=O)NCc4ccc(Cl)cc4)c3=O)C2=O)CC1" in terms of log10 IC50 is -1.43

For reference, reported log10 IC50 for "N#Cc1ccc(CNC(=O)c2ccc3n(c2=O)CCN(CC2(S(=O)(=O)CC4CC4)CC2)C3=O)cc1" stands at -2.60

###

target: human HSV DNA polymerase UL30 (Human herpesvirus 1 (strain 17) (HHV-1) (Human herpes simplex virus 1)); assay: HSV polymerase biochemical assay (molecular beacon-based)
IC50 values, listed per item
State the answer as a number, implicitly in nM.

                                   compound  value_reported
0  CC(C)S(=O)(=O)C1(CN2CCn3c(ccc(C(=O)NCc4ccc(C#N)cc4)c3=O)C2=O)CC1            49.5
1  N#Cc1ccc(CNC(=O)c2ccc3n(c2=O)CCN(CC2(S(=O)(=O)[C@@H]4CC4(F)F)CC2)C3=O)cc1 (single isomer, unassigned)            39.5

Switching to the query record.
Sample N#Cc1ccc(CNC(=O)c2ccc3n(c2=O)CCN(CC2(S(=O)(=O)C4CC4(F)F)CC2)C3=O)cc1Cl (stereo not drawn) ; IC50 observed: 200

###

biological target: human HSV DNA polymerase UL30 (Human herpesvirus 1 (strain 17) (HHV-1) (Human herpes simplex virus 1), UniProt P04293); experiment: HSV polymerase biochemical assay (molecular beacon-based)
experimental readout: IC50 (nM)
Use nM as the unit, but write only the number.

The recorded IC50 for entry CS(=O)(=O)C1(CN2CCn3c(ccc(C(=O)NCc4ncc(Cl)cn4)c3=O)C2=O)CC1 [Example 40] equals 28300

###

target: human HSV DNA polymerase UL30 (Human herpesvirus 1 (strain 17) (HHV-1) (Human herpes simplex virus 1)); experiment: HSV polymerase biochemical assay (molecular beacon-based)
Here the recorded pIC50 is given for each entry.
Worth noting: pIC50 values are minus log10 of concentrations stated in mol/L.

Consider the following illustrative entries.
                                   compound  value_reported
0  CC(C)(C)[S+]([O-])C1(CN2CCn3c(ccc(C(=O)NCc4ccc(C#N)cc4)c3=O)C2=O)CC1 (stereo not shown)            6.01
1  CCS(=O)(=O)NC1(CN2CCn3c(ccc(C(=O)NCc4ccc(Cl)cc4)c3=O)C2=O)CC1            5.95
2  CC(C)(C)S(=O)(=O)C1(CN2CCn3c(ccc(C(=O)NCc4ccc(C#N)cc4)c3=O)C2=O)CC1            7.60
3  CS(=O)(=O)C1(CN2CCn3c(ccc(C(=O)NCc4ccc(C#N)cc4F)c3=O)C2=O)CC1            6.20
4  CS(=O)(=O)C1(CN2CCn3c(ccc(C(=O)NCc4ccc(Cl)cc4)c3=O)C2=O)CC1            7.29

// "CN(CCN1CCn2c(ccc(C(=O)NCc3ccc(Cl)cc3)c2=O)C1=O)S(=O)(=O)C1CC1" : pIC50 value = 6.05

// pIC50 value for "CS(=O)(=O)C1(CN2CCn3c(c(F)cc(C(=O)NCc4ccc(C#N)cc4)c3=O)C2=O)CC1" : 6.52

###

target: human CMV DNA polymerase UL54 (Human cytomegalovirus (strain AD169) (HHV-5) (Human herpesvirus 5), UniProt P08546); test: CMV polymerase biochemical assay (molecular beacon-based)
Each entry below carries its recorded pIC50.
Scale note: pIC50 = -log10(concentration in M).

                                   compound  value_reported
0  N#Cc1ccc(CNC(=O)c2ccc3n(c2=O)CCN(CC2(S(=O)(=O)C4(C(F)(F)F)CC4)CC2)C3=O)cc1 [Example 97-1]            8.30
1  N#Cc1ccc(CNC(=O)c2ccc3n(c2=O)CCN(CC2(S(=O)(=O)[C@@H]4CC4(F)F)CC2)C3=O)cc1Cl (single isomer, unassigned) [Example 102-2]            8.82
2  N#Cc1ccc(CNC(=O)c2ccc3n(c2=O)CCN(CC2(S(=O)(=O)C4(C(F)F)CC4)CC2)C3=O)cc1F [Example 99-2]            9.15

Recorded result, N#Cc1ccc(CNC(=O)c2ccc3n(c2=O)CCN(CC2(S(=O)(=O)C4CC(F)(F)C4)CC2)C3=O)cc1 [Example 83] , pIC50: 8.36

CNS(=O)(=O)C1(CN2CCn3c(ccc(C(=O)NCc4ccc(Cl)cc4)c3=O)C2=O)CC1 [Example 74-2] yielded pIC50 of 8.80

Form: compound = N#Cc1ccc(CNC(=O)c2ccc3n(c2=O)CCN(CC2(S(=O)(=O)C4(C(F)F)CC4)CC2)C3=O)cc1 [Example 99-1] ; pIC50 = 9.00

Lab note: measured pIC50 of C[C@H](CCO)S(=O)(=O)C1(CN2CCn3c(ccc(C(=O)NCc4ccc(Cl)cc4)c3=O)C2=O)CC1 (single isomer, unassigned) [Example 6] was 8.62
